assay: Selectivity ratio of Kd for displacement of fluorescent tracer 5-(3-(4-((1S,5S,6S)-10-(3,5-dichlorophenylsulfonyl)-2-oxo-3-(pyridin-3-ylmethyl)-3,10-diazabicyclo[4.3.1]decan-5-yl)-1H-1,2,3-triazol-1-yl)propylcarbamoyl)-2-(6-(dimethylamino)-3-(dimethyliminio)-3H-xanthen-9-yl)benzoate from recombinant full length C-terminal FLAG-tagged FKBP52 (unknown origin) to Kd for displacement of fluorescent tracer 5-(3-(4-((1S,5S,6S)-10-(3,5-dichlorophenylsulfonyl)-2-oxo-3-(pyridin-3-ylmethyl)-3,10-diazabicyclo[4.3.1]decan-5-yl)-1H-1,2,3-triazol-1-yl)propylcarbamoyl)-2-(6-(dimethylamino)-3-(dimethyliminio)-3H-xanthen-9-yl)benzoate from recombinant full length C-terminal FLAG-tagged FKBP51 (unknown origin)
METRIC NAME: Selectivity ratio

A selection of reference data follows.
COc1ccc(CC[C@H]2OC(=O)[C@@H]3CCCCN3C(=O)[C@@H](C3CCCCC3)c3cc(OC)c(c(OC)c3)OCC(O)C(O)COc3cccc2c3)cc1OC (mixture of isomers)	66.2
COc1ccc(CC[C@H]2OC(=O)[C@@H]3CCCCN3C(=O)[C@@H](C3CCCCC3)c3cc(OC)c(c(OC)c3)OCCCCCOc3cccc2c3)cc1OC	> 84
COc1ccc(CC[C@H]2OC(=O)[C@@H]3CCCCN3C(=O)[C@@H](C3CCCCC3)c3cc(OC)c(OC)c(c3)OCCOCCCCOc3cccc2c3)cc1OC	> 164
COc1ccc(CC[C@H]2OC(=O)[C@@H]3CCCCN3C(=O)[C@@H](C3CCCCC3)c3cc(OC)c(c(OC)c3)OCCC(=O)COc3cccc2c3)cc1OC	425
COc1ccc(CC[C@H]2OC(=O)[C@@H]3CCCCN3C(=O)[C@@H](C3CCCCC3)c3cc(OC)c(c(OC)c3)OCCCOC/C=C/COc3cccc2c3)cc1OC	> 119
COc1ccc(CC[C@H]2OC(=O)[C@@H]3CCCCN3C(=O)[C@@H](C3CCCCC3)c3cc(OC)c(c(OC)c3)OCCOCCCCOc3cccc2c3)cc1OC	> 72

Task: What does the record list as Selectivity ratio for "COc1ccc(CC[C@H]2OC(=O)[C@@H]3CCCCN3C(=O)[C@@H](C3CCCCC3)c3cc(OC)c(OC)c(c3)OC/C=C/COc3cccc2c3)cc1OC" ?
Result: 49.9

Task: What does the record list as Selectivity ratio for "COc1ccc(CC[C@H]2OC(=O)[C@@H]3CCCCN3C(=O)[C@@H](C3CCCCC3)c3cc(OC)c(OC)c(c3)OCCCCOc3cccc2c3)cc1OC" ?
Result: 154

Task: What does the record list as Selectivity ratio for "COc1ccc(CC[C@H]2OC(=O)[C@@H]3CCCCN3C(=O)[C@@H](C3CCCCC3)c3cc(OC)c(OC)c(c3)OCCCCCOc3cccc2c3)cc1OC" ?
Result: > 217
